Target: alpha-thrombin (bovine, UniProt P00735;P00735 318-366;367-625)
Experiment: ITC
METRIC: Kd (nM)
The answer is to be given in nM; state only the numeric part.

Please fill in: Kd reported for GGTTGGTGTGGTTGG (structured_DNA) [thrombin-binding DNA aptamer (15-mer, Bock et al.)] = 111

src = paper PMC3107735
